src = PubChem BioAssay (NCI)

- System: U251 CNS
- experimental-protocol: NCI-60 one-dose screen, 48 h (100 = growth as untreated, 0 = no growth, -100 = all killed)
- test-conditions: 10 µM unless noted
The panel holds about 83,000 compounds, 20% with a hit somewhere; the sample as a whole holds those more often. Active and inactive are the calls of the source. Rule for the calls: active = growth percent below 10; inactive = the rest.
recorded-metric: growth

Example molecules with recorded growth:
ClCCOCCOc1ccc(C2CCCCC2)cc1 89.7% (inactive)
Nc1nc(N)c2[nH]cnc2n1 111% (inactive)
Cc1ccc(S(=O)(=O)c2ccccc2)cc1 17.2% (inactive)
COc1ccc(N/C=C/C2=[N+](C)c3ccccc3C2(C)C)c(OC)c1 91.2% (inactive)
C#CCOC(=O)Nc1ccccc1 98.2% (inactive)

Continue with the molecule presented below.
What value of measured growth is listed for `O=[N+]([O-])c1cccc(SSc2cccc([N+](=O)[O-])c2)c1` ?
99.2% (inactive)
